measured.on: T1, extracellular domain of human IL12RB1 (hIL12Rb1 ECD) (human, UniProt P42701 24-545)
T1 construct: The immunogen was a fusion of the ECD with the human IgG1 hinge and Fc; also called IL12Rβ1; CD212
assay.details: periplasmic extract ELISA (PE-ELISA) of phage clones, colorimetric

binder	binding result
hIL12Rb1_VHH18 (VHH, Phagemid clone with his-tag, periplasmic extract) VHH: QVQLQESGGGSVQAGGSLRLSCAASRYTYTNNFMAWFRQAPGKEREGVAAIYTGDGYAYYFDSVKGRFTISQDNDKNMLYLQMNSLKPEDTAMYYCAAMERRSGRRRMTENAEYKYWGQGTQVTVSS	binds
hIL12Rb1_VHH9 (VHH, Phagemid clone with his-tag, periplasmic extract) VHH: QVQLQESGGGSVQAGGSLRLSCVASGYSYCGYDMMWYRQAPGKEREFVALITSDYSIRYEDSVEGRFSISRDNAKNTGYLLMSNLTPADTAIYYCKTSTAARESGWCRSRYRVASWGQGTQVTVSS	binds

These data points were gathered from patent US20230279126A1.
